Measured Enzyme degradation CDK2 (% remaining) @ 10 μM, listed per entry for reference.
test.target: CDK2 (Homo sapiens)
Construct: endogenous in cells; host or cells: MDA-MB-231
test.name: CDK protein degradation activity (Western blotting), CDK2
Type: cell-based
condition.notes: MDA-MB-231 cells, 10 μM, 16 hours, Western blot
Description: In order to evaluate the CDK protein degradation activity of the compounds according to the present invention, the following experiment was conducted. MDA-MB-231 cells were seeded at 5×10^5 cells per well in a 6-well plate. The next day, the compounds were treated in each well to achieve final concentrations of 100 nM, 1 μM, and 10 μM. […] Cell lysates were quantified and separated by size using sodium dodecyl sulfate-polyacrylamide gel electrophoresis (SDS-PAGE). […]

Past entries and their recorded results:
// Enzyme degradation CDK2 (% remaining) @ 10 μM lookup, key: O=C1CC[C@@H](c2cccc(OCC(=O)N3CCC(OCCN4CCN(c5ccc(Nc6ncnc7c6ncn7C6CC(NC(=O)Cc7ccccc7)C6)cc5)CC4)CC3)c2)C(=O)N1 (stereo partly drawn)
0/0/0%

// Enzyme degradation CDK2 (% remaining) @ 10 μM lookup, key: `O=C1CC[C@H](N2C(=O)c3cccc(NCC(=O)N4CCC(CN5CCN(c6ccc(Nc7ncnc8c7ncn8[C@H]7C[C@@H](NC(=O)c8cccc(C(F)(F)F)n8)C7)cc6)CC5)CC4)c3C2=O)C(=O)N1`
0/0/0%

Now consider the entry below.
// Enzyme degradation CDK2 (% remaining) @ 10 μM lookup, key: `Cc1cccc(C(=O)N[C@H]2C[C@@H](n3cnc4c(NCc5ccc(OCCCN6CCN(c7cccc8c7C(=O)N([C@H]7CCC(=O)NC7=O)C8=O)CC6)cc5)ncnc43)C2)n1`
80/80/80%

src = patent US20260125382A1
